The origin of these recorded values is patent US20250154169A1.

Listing of entries alongside the reported AC50.
tested on: MYB mRNA; experiment: Splicing RT-qPCR assay, MYB canonical (CJ) and alternative (AJ) junction mRNA; format: cell-based, human; conditions: Homo sapiens, 24 h, A673 or K562 cells, 24 hours compound treatment, RT-qPCR; read-out: MYB AJ (AC50, increase in alternative junction mRNA)
Counter-ions that a name gives are not always drawn.

{"COMPOUND": "CCn1cc2c(N3CCN4C(=O)OCC4C3)ccc(C(=O)Nc3cc(F)c4nc(C)cn4c3)c2n1 (stereo not shown)", "AC50": "100 to 1000 nM"}
{"COMPOUND": "Cc1cn2cc(NC(=O)c3ccc(N4CCNCC4)c4cc(C)oc34)cc(Cl)c2n1", "AC50": "< 100 nM"}
{"COMPOUND": "Cc1cn2cc(NC(=O)c3ccc(N4CC5(N)CC4C5)c4cn(C)nc34)cc(F)c2n1", "AC50": "100 to 1000 nM"}
{"COMPOUND": "Cc1cn2cc(NC(=O)c3ccc(C4CCN(C)CC4)c4cn(C)nc34)cc(F)c2n1", "AC50": "< 100 nM"}
{"COMPOUND": "CCn1cc2c(N3CCC(N(C)C)C3)ccc(C(=O)Nc3cc(F)c4nc(C)cn4c3)c2n1 (stereo not shown)", "AC50": "100 to 1000 nM"}
{"COMPOUND": "CN[C@H]1CCN(c2ccc(C(=O)Nc3cn4cc(C)nc4c(OC)n3)c3nn(C)cc23)C1", "AC50": "100 to 1000 nM"}
{"COMPOUND": "Cc1cn2cc(NC(=O)c3ccc(N4CCNCC4)c4cn(CC5(C)COC5)nc34)cc(F)c2n1", "AC50": "> 10000 nM"}
{"COMPOUND": "CCn1cc2c(N3CCC(NC4CC4)C3)cc(F)c(C(=O)Nc3cc(F)c4nc(C)cn4c3)c2n1 (stereo not shown)", "AC50": "< 100 nM"}
{"COMPOUND": "Cc1cc(NC(=O)c2ccc(N3CCNCC3)c3cn(C)nc23)cc2cn(C)nc12", "AC50": "100 to 1000 nM"}
{"COMPOUND": "CCn1cc2c(N3CCC(C)(NC)C3)ccc(C(=O)Nc3cc(F)c4nc(C)cn4c3)c2n1 (stereo not shown)", "AC50": "1000 to 10000 nM"}
{"COMPOUND": "CCn1cc2c(N3CCNCC3)ccc(C(=O)Nc3cc(F)c4nc(CO)oc4c3)c2n1", "AC50": "100 to 1000 nM"}
{"COMPOUND": "Cc1cn2nc(NC(=O)c3ccc(N4CCNCC4)c4cn(C)nc34)cc(C)c2n1 [Compound 322, hydrochloride]", "AC50": "> 10000 nM"}
{"COMPOUND": "Cc1cn2cc(NC(=O)c3c(F)cc(N4CC[C@@H](NC5CC5)C4)c4cn(C)nc34)cc(F)c2n1", "AC50": "< 100 nM"}
{"COMPOUND": "CCn1cc2c(N3CCN4CCOC[C@@H]4C3)ccc(C(=O)Nc3cc(F)c4nc(C)cn4c3)c2n1", "AC50": "1000 to 10000 nM"}
{"COMPOUND": "C=CCn1cc2c(N3CCNCC3)ccc(C(=O)Nc3cc(F)c4nc(C)cn4c3)c2n1", "AC50": "< 100 nM"}
{"COMPOUND": "Cc1cn2cc(NC(=O)c3ccc(N4CCNCC4)c4cn(CC5(O)CC5)nc34)cc(F)c2n1", "AC50": "100 to 1000 nM"}
{"COMPOUND": "CCn1cc2c(N3CCC(N[C@H]4C[C@@H](O)C4)CC3)ccc(C(=O)Nc3cc(F)c4nc(C)cn4c3)c2n1", "AC50": "< 100 nM"}
{"COMPOUND": "Cc1cn2cc(NC(=O)c3ccc(N4CCC(NC(C)(C)C)C4)c4cn(C)nc34)cc(F)c2n1 (stereo not shown)", "AC50": "100 to 1000 nM"}
{"COMPOUND": "COCCCn1cc2c(N3CCNCC3)ccc(C(=O)Nc3cc(F)c4nc(C)cn4c3)c2n1", "AC50": "< 100 nM"}
{"COMPOUND": "Cc1cn2cc(NC(=O)c3c(F)cc(N4CCC(N(C)C)C4)c4cn(C)nc34)cc(F)c2n1 (stereo in doubt) [Compound 464]", "AC50": "< 100 nM"}
{"COMPOUND": "Cc1cn2cc(NC(=O)c3ccc(N4CCNCC4)c4cn(C)nc34)nc(C#N)c2n1", "AC50": "100 to 1000 nM"}
{"COMPOUND": "Cc1cn2cc(NC(=O)c3ccc(N4CC[C@@H](NC5CC(O)C5)C4)c4cn(C)nc34)cc(F)c2n1 (stereo partly shown)", "AC50": "100 to 1000 nM"}
